Reference for the values: patent US4761403A

# targetOrTestSystem: 15-lipoxygenase (Glycine max)
# Construct: 15-lipoxygenase obtained from soybean; from tissue; host or cells: soybean
# Sequence (P08170 whole entry): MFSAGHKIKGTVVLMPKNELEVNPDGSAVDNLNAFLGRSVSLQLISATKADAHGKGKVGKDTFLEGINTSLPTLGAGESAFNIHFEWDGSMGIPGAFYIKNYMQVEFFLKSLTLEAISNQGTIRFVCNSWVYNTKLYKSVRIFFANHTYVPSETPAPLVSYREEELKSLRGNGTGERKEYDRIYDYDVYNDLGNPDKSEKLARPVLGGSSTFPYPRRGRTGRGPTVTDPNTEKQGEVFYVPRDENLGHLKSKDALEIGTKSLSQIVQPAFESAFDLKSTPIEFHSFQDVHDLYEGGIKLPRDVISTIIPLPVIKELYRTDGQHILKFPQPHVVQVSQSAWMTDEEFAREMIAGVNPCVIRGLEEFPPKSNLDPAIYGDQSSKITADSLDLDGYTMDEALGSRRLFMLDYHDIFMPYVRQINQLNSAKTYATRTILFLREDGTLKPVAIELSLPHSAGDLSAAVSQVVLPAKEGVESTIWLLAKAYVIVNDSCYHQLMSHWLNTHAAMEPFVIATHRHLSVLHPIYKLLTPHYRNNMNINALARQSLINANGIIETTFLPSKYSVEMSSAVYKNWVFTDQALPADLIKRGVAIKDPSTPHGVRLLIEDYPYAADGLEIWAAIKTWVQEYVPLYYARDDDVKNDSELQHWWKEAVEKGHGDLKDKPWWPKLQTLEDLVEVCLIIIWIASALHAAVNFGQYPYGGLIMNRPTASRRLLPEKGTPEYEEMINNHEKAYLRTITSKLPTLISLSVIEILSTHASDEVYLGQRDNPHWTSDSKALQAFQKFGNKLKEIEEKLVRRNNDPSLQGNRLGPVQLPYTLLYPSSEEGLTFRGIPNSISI
# protocolDescription: 15-lipoxygenase inhibition, enzyme obtained from soybean
# Assay type: biochemical
# recordedConditions: 10 uM; read-out: Percent Inhibition, 15-lipoxygenase
experimentalEndpoint: inhibition at 10 µM (%)

Some solved entries appear below for comparison.
O=c1c2ccccc2c(Br)cn1O [Example 29, 4-Bromo-2-hydroxyquinol-1(2H)-one]; 43
O=c1ccc2cc([N+](=O)[O-])ccc2n1O [Example 11, 6-Nitro-1-hydroxyquinol-2(1H)-one]; 2
Cc1ccc2ccc(=O)n(O)c2c1 [Example 13, 7-Methyl-1-hydroxyquinol-2(1H)-one]; 61
O=c1ccc2c([N+](=O)[O-])cccc2n1O [Example 6, 5-Nitro-1-hydroxyquinol-2(1H)-one]; 27
O=c1c2ccccc2c2ccccc2n1O [Example 15, 3,4-Benzo-1-hydroxyquinol-2(1H)-one]; 13

[P] COc1ccc2ccn(O)c(=O)c2c1 [Example 34]
[Q] O=c1c2ccccc2c(-c2ccccc2)cn1O [Example 31, 4-Phenyl-2-hydroxyquinol-1(2H)-one]
Could you kindly indicate whether P or Q has the higher inhibition at 10 µM value? Reply briefly: the label of your chosen item.
P
